Origin of measurements: paper PMC6321168

test: Urinary excretion study in rats after oral NS, SF or CNS (LC–MS/MS); format: in vivo; details: rat urine, oral CNS 110 mg/kg, 24 h
assayReadout: Accumulative excretion amount (µg)
Respond with the bare value in µg.

INSERT INTO results (compound, assayreadout, scaleunit, testresult) VALUES
  ('CC(C)=CCC[C@](C)(O[C@@H]1O[C@H](CO)[C@@H](O)[C@H](O)[C@H]1O)[C@H]1CC[C@]2(C)[C@@H]1[C@H](O)C[C@@H]1[C@@]3(C)CC[C@H](O)C(C)(C)[C@@H]3[C@@H](O[C@@H]3O[C@H](CO)[C@@H](O)[C@H](O)[C@H]3O)C[C@]12C [ginsenoside Rg1]', 'Accumulative excretion amount', 'µg', 8.052),
  ('CC(C)=CCC[C@](C)(O[C@@H]1O[C@H](CO)[C@@H](O)[C@H](O)[C@H]1O)[C@H]1CC[C@]2(C)[C@@H]1[C@H](O)C[C@@H]1[C@@]3(C)CC[C@H](O[C@@H]4O[C@H](CO)[C@@H](O)[C@H](O)[C@H]4O[C@@H]4O[C@H](CO)[C@@H](O)[C@H](O)[C@H]4O)C(C)(C)[C@@H]3CC[C@]12C [ginsenoside Rd]', 'Accumulative excretion amount', 'µg', 0.103),
  ('CC(C)=CCC[C@](C)(O[C@@H]1O[C@H](CO)[C@@H](O)[C@H](O)[C@H]1O)[C@H]1CC[C@]2(C)[C@@H]1[C@H](O)C[C@@H]1[C@@]3(C)CC[C@H](O)C(C)(C)[C@@H]3[C@@H](O[C@@H]3O[C@H](CO)[C@@H](O)[C@H](O)[C@H]3O[C@@H]3O[C@@H](C)[C@H](O)[C@@H](O)[C@H]3O)C[C@]12C [ginsenoside Re]', 'Accumulative excretion amount', 'µg', 0.381);

Next:
Ask: Name the reported Accumulative excretion amount value associated with the compound CC(C)=CCC[C@](C)(O[C@@H]1O[C@H](CO[C@@H]2O[C@H](CO)[C@@H](O)[C@H](O)[C@H]2O)[C@@H](O)[C@H](O)[C@H]1O)[C@H]1CC[C@]2(C)[C@@H]1[C@H](O)C[C@@H]1[C@@]3(C)CC[C@H](O[C@@H]4O[C@H](CO)[C@@H](O)[C@H](O)[C@H]4O[C@@H]4O[C@H](CO)[C@@H](O)[C@H](O)[C@H]4O)C(C)(C)[C@@H]3CC[C@]12C [ginsenoside Rb1]
Reply: 0.859

----------
Catalogue of Accumulative excretion percentage readings, one per entry.
experiment: Fecal excretion study in rats after oral NS, SF or CNS (LC–MS/MS); assay type: in vivo; settings: rat feces, oral NS 60 mg/kg, 12 h
Respond with the bare value in %.

Observe how each entry below is paired with its result.
INSERT INTO measurements (molecule, assayreadout, testresult) VALUES
  ('CC(C)=CCC[C@](C)(O[C@@H]1O[C@H](CO)[C@@H](O)[C@H](O)[C@H]1O)[C@H]1CC[C@]2(C)[C@@H]1[C@H](O)C[C@@H]1[C@@]3(C)CC[C@H](O)C(C)(C)[C@@H]3[C@@H](O[C@@H]3O[C@H](CO)[C@@H](O)[C@H](O)[C@H]3O[C@@H]3O[C@@H](C)[C@H](O)[C@@H](O)[C@H]3O)C[C@]12C [ginsenoside Re]', 'Accumulative excretion percentage', 3.122),
  ('CC(C)=CCC[C@](C)(O[C@@H]1O[C@H](CO)[C@@H](O)[C@H](O)[C@H]1O)[C@H]1CC[C@]2(C)[C@@H]1[C@H](O)C[C@@H]1[C@@]3(C)CC[C@H](O[C@@H]4O[C@H](CO)[C@@H](O)[C@H](O)[C@H]4O[C@@H]4O[C@H](CO)[C@@H](O)[C@H](O)[C@H]4O)C(C)(C)[C@@H]3CC[C@]12C [ginsenoside Rd]', 'Accumulative excretion percentage', 3.232),
  ('CC(C)=CCC[C@](C)(O[C@@H]1O[C@H](CO[C@@H]2O[C@H](CO)[C@@H](O)[C@H](O)[C@H]2O)[C@@H](O)[C@H](O)[C@H]1O)[C@H]1CC[C@]2(C)[C@@H]1[C@H](O)C[C@@H]1[C@@]3(C)CC[C@H](O[C@@H]4O[C@H](CO)[C@@H](O)[C@H](O)[C@H]4O[C@@H]4O[C@H](CO)[C@@H](O)[C@H](O)[C@H]4O)C(C)(C)[C@@H]3CC[C@]12C [ginsenoside Rb1]', 'Accumulative excretion percentage', 1.312);

Next:
Ask: Name the reported Accumulative excretion percentage value associated with the molecule CC(C)=CCC[C@](C)(O[C@@H]1O[C@H](CO)[C@@H](O)[C@H](O)[C@H]1O)[C@H]1CC[C@]2(C)[C@@H]1[C@H](O)C[C@@H]1[C@@]3(C)CC[C@H](O)C(C)(C)[C@@H]3[C@@H](O[C@@H]3O[C@H](CO)[C@@H](O)[C@H](O)[C@H]3O)C[C@]12C [ginsenoside Rg1]
Reply: 1.244

----------
assay: Fecal excretion study in rats after oral NS, SF or CNS (LC–MS/MS); format: in vivo; conditions: rat feces, oral CNS 110 mg/kg, 8 h
assayReadout: Accumulative excretion percentage (%)
Respond with the bare value in %.

Ask: Name the reported Accumulative excretion percentage value associated with the compound CC(C)=CCC[C@](C)(O[C@@H]1O[C@H](CO)[C@@H](O)[C@H](O)[C@H]1O)[C@H]1CC[C@]2(C)[C@@H]1[C@H](O)C[C@@H]1[C@@]3(C)CC[C@H](O)C(C)(C)[C@@H]3[C@@H](O[C@@H]3O[C@H](CO)[C@@H](O)[C@H](O)[C@H]3O)C[C@]12C [ginsenoside Rg1]
Reply: 1.303

----------
Catalogue of Excretion amount readings, one per entry.
experiment: Fecal excretion study in rats after oral NS, SF or CNS (LC–MS/MS); type: in vivo; conditions: rat feces, oral CNS 110 mg/kg, 48 h
Respond with the bare value in µg.

Observe how each entry below is paired with its result.
INSERT INTO measurements (compound, assayreadout, scaleunit, testresult) VALUES
  ('CC(C)=CCC[C@](C)(O[C@@H]1O[C@H](CO)[C@@H](O)[C@H](O)[C@H]1O)[C@H]1CC[C@]2(C)[C@@H]1[C@H](O)C[C@@H]1[C@@]3(C)CC[C@H](O)C(C)(C)[C@@H]3[C@@H](O[C@@H]3O[C@H](CO)[C@@H](O)[C@H](O)[C@H]3O)C[C@]12C [ginsenoside Rg1]', 'Excretion amount', 'µg', 14.173),
  ('CC(C)=CCC[C@](C)(O[C@@H]1O[C@H](CO)[C@@H](O)[C@H](O)[C@H]1O)[C@H]1CC[C@]2(C)[C@@H]1[C@H](O)C[C@@H]1[C@@]3(C)CC[C@H](O[C@@H]4O[C@H](CO)[C@@H](O)[C@H](O)[C@H]4O[C@@H]4O[C@H](CO)[C@@H](O)[C@H](O)[C@H]4O)C(C)(C)[C@@H]3CC[C@]12C [ginsenoside Rd]', 'Excretion amount', 'µg', 9.778),
  ('CC(C)=CCC[C@](C)(O[C@@H]1O[C@H](CO)[C@@H](O)[C@H](O)[C@H]1O)[C@H]1CC[C@]2(C)[C@@H]1[C@H](O)C[C@@H]1[C@@]3(C)CC[C@H](O)C(C)(C)[C@@H]3[C@@H](O[C@@H]3O[C@H](CO)[C@@H](O)[C@H](O)[C@H]3O[C@@H]3O[C@@H](C)[C@H](O)[C@@H](O)[C@H]3O)C[C@]12C [ginsenoside Re]', 'Excretion amount', 'µg', 5.282);

Ask: Name the reported Excretion amount value associated with the compound CC(C)=CCC[C@](C)(O[C@@H]1O[C@H](CO[C@@H]2O[C@H](CO)[C@@H](O)[C@H](O)[C@H]2O)[C@@H](O)[C@H](O)[C@H]1O)[C@H]1CC[C@]2(C)[C@@H]1[C@H](O)C[C@@H]1[C@@]3(C)CC[C@H](O[C@@H]4O[C@H](CO)[C@@H](O)[C@H](O)[C@H]4O[C@@H]4O[C@H](CO)[C@@H](O)[C@H](O)[C@H]4O)C(C)(C)[C@@H]3CC[C@]12C [ginsenoside Rb1]
Reply: 8.316

----------
Catalogue of Excretion amount readings, one per entry.
Test: Fecal excretion study in rats after oral NS, SF or CNS (LC–MS/MS)
Type: in vivo
Settings: rat feces, oral NS 60 mg/kg, 8 h
Protocol: The animal room was set at constant temperature of 20 ± 2 °C with humidity of 50 ± 20% and 12/12 h light/dark cycle. Eighteen male rats were fasted for 12 h before starting the experiment. […] The urine volume was recorded and the dry feces were measured for each collection period. […] The accumulative excretion percentage was calculated for each analyte as follows. […]
Respond with the bare value in µg.

Observe how each entry below is paired with its result.
INSERT INTO results (compound, assayreadout, testresult) VALUES
  ('CC(C)=CCC[C@](C)(O[C@@H]1O[C@H](CO[C@@H]2O[C@H](CO)[C@@H](O)[C@H](O)[C@H]2O)[C@@H](O)[C@H](O)[C@H]1O)[C@H]1CC[C@]2(C)[C@@H]1[C@H](O)C[C@@H]1[C@@]3(C)CC[C@H](O[C@@H]4O[C@H](CO)[C@@H](O)[C@H](O)[C@H]4O[C@@H]4O[C@H](CO)[C@@H](O)[C@H](O)[C@H]4O)C(C)(C)[C@@H]3CC[C@]12C [ginsenoside Rb1]', 'Excretion amount', 11.066),
  ('CC(C)=CCC[C@](C)(O[C@@H]1O[C@H](CO)[C@@H](O)[C@H](O)[C@H]1O)[C@H]1CC[C@]2(C)[C@@H]1[C@H](O)C[C@@H]1[C@@]3(C)CC[C@H](O)C(C)(C)[C@@H]3[C@@H](O[C@@H]3O[C@H](CO)[C@@H](O)[C@H](O)[C@H]3O[C@@H]3O[C@@H](C)[C@H](O)[C@@H](O)[C@H]3O)C[C@]12C [ginsenoside Re]', 'Excretion amount', 6.563);

Ask: Name the reported Excretion amount value associated with the compound CC(C)=CCC[C@](C)(O[C@@H]1O[C@H](CO)[C@@H](O)[C@H](O)[C@H]1O)[C@H]1CC[C@]2(C)[C@@H]1[C@H](O)C[C@@H]1[C@@]3(C)CC[C@H](O)C(C)(C)[C@@H]3[C@@H](O[C@@H]3O[C@H](CO)[C@@H](O)[C@H](O)[C@H]3O)C[C@]12C [ginsenoside Rg1]
Reply: 6.792
